system: Streptococcus pyogenes SSI-9; test: Antibacterial activity assay of bead-derived peptides (three concentrations); format: cell-based; design: key: +++: inhibition by the 640-fold diluted peptide solution; ++: inhibition by the 160-fold diluted solution; +: inhibition by the 40-fold diluted solution; -: no inhibition; settings: S. pyogenes, bead-derived peptide solution, three concentrations
Where a SMILES comes first, the peptide text is derived from it. [ ]: non-standard residue; d: D form. The star is where a group is joined. NHCH2CH2OH = OCCN*; For = O=C*
Experimental readout: antibacterial activity

Streptococcus pyogenes SSI-9 / antibacterial activity / CC(C)C[C@@H](NC(=O)[C@H](C)NC(=O)CNC(=O)[C@@H](NC=O)C(C)C)C(=O)N[C@@H](C)C(=O)N[C@@H](C(=O)N[C@H](C(=O)N[C@H](CC(C)C)C(=O)N[C@@H](Cc1c[nH]c2ccccc12)C(=O)N[C@@H](C(=O)N[C@@H](Cc1c[nH]c2ccccc12)C(=O)N[C@H](CC(C)C)C(=O)N[C@@H](Cc1c[nH]c2ccccc12)C(=O)N[C@H](CC(C)C)C(=O)N[C@@H](Cc1c[nH]c2ccccc12)C(=O)NCCO)C(C)C)C(C)C)C(C)C [compound 7532] (For-VGA[dL]A[dV]V[dL]W[dV]W[dL]W[dL]W-NHCH2CH2OH) : value?
+

Lookup CC(C)C[C@@H](NC(=O)[C@H](C)NC(=O)[C@H](NC(=O)[C@H](C)NC(=O)CNC(=O)[C@@H](NC=O)C(C)C)C(C)C)C(=O)N[C@H](C(=O)N[C@H](CC(C)C)C(=O)N[C@@H](Cc1c[nH]c2ccccc12)C(=O)N[C@@H](C(=O)N[C@@H](Cc1c[nH]c2ccccc12)C(=O)N[C@H](CC(C)C)C(=O)N[C@@H](Cc1c[nH]c2ccccc12)C(=O)N[C@@H](C(=O)N[C@@H](Cc1c[nH]c2ccccc12)C(=O)NCCO)[C@H](C)O)C(C)C)C(C)C [compound 2895] (For-VGA[dV]A[dL]V[dL]W[dV]W[dL]W[dT]W-NHCH2CH2OH)
-

Query CC(C)C[C@@H](NC(=O)[C@H](C)NC(=O)CNC(=O)[C@@H](NC=O)C(C)C)C(=O)N[C@@H](C)C(=O)N[C@H](CC(C)C)C(=O)N[C@H](C(=O)N[C@H](CC(C)C)C(=O)N[C@@H](Cc1c[nH]c2ccccc12)C(=O)N[C@@H](C(=O)N[C@@H](Cc1c[nH]c2ccccc12)C(=O)N[C@@H](C(=O)N[C@@H](Cc1c[nH]c2ccccc12)C(=O)N[C@H](CC(C)C)C(=O)N[C@@H](Cc1c[nH]c2ccccc12)C(=O)NCCO)[C@H](C)O)C(C)C)C(C)C [compound 5736] (For-VGA[dL]A[dL]V[dL]W[dV]W[dT]W[dL]W-NHCH2CH2OH) next
-

Also, CC(C)C[C@@H](NC(=O)[C@H](C)NC(=O)CNC(=O)[C@@H](NC=O)C(C)C)C(=O)N[C@@H](C)C(=O)N[C@@H](C(=O)N[C@H](C(=O)N[C@H](CC(C)C)C(=O)N[C@@H](Cc1c[nH]c2ccccc12)C(=O)N[C@@H](C(=O)N[C@@H](Cc1c[nH]c2ccccc12)C(=O)N[C@H](CC(C)C)C(=O)N[C@@H](Cc1c[nH]c2ccccc12)C(=O)N[C@@H](C(=O)N[C@@H](Cc1c[nH]c2ccccc12)C(=O)NCCO)C(C)C)C(C)C)C(C)C)C(C)C [compound 4895] (For-VGA[dL]A[dV]V[dL]W[dV]W[dL]W[dV]W-NHCH2CH2OH) please.
+
